Assay: Half life in human plasma expressing CYP2C8*2 allele carrier polymorphism at 25 to 32 mg by LC/MS/MS analysis
Type: ADME, organism-based
value_kind: half-life (min)
Could you give me the number in min? Just the number is fine.

Quick one: half-life for CCOc1nc2cccc(C(=O)O)c2n1Cc1ccc(-c2ccccc2-c2nnn[nH]2)cc1 ?
642

* * *

Experiment: Clearance in human plasma expressing CYP2C8*1/*1 polymorphism at 25 to 32 mg by LC/MS/MS analysis
Assay type: ADME, organism-based
value_kind: clearance (mL/min/kg)
Supply the numeric figure in mL/min/kg, leaving out any unit text.

// lookup clearance for CCOc1nc2cccc(C(=O)O)c2n1Cc1ccc(-c2ccccc2-c2nnn[nH]2)cc1
2.5

* * *

Experiment: Cmax in men plasma at 25 to 32 mg by LC/MS/MS analysis
Type: ADME, organism-based
Settings: male, human
value_kind: Cmax (ng/mL)
Please give a number only; it is taken to be in ng/mL.

What value of measured Cmax is listed for CCOc1nc2cccc(C(=O)O)c2n1Cc1ccc(-c2ccccc2-c2nnn[nH]2)cc1 ?
216

* * *

Test: Tmax in human plasma expressing CYP2C9*3 allele carrier polymorphism at 25 to 32 mg by LC/MS/MS analysis
Type: ADME, organism-based
value_kind: Tmax (h)
State just the number; it will be interpreted in h.

Give its Tmax value. Item: CCOc1nc2cccc(C(=O)O)c2n1Cc1ccc(-c2ccccc2-c2nnn[nH]2)cc1
5

* * *

Assay: Half life in men plasma at 25 to 320 mg by LC/MS/MS analysis
Type: ADME, organism-based
Details: male, human
value_kind: half-life
Provide a numeric answer, followed by its unit.

# half-life lookup, item CCCCC(=O)N(Cc1ccc(-c2ccccc2-c2nnn[nH]2)cc1)[C@H](C(=O)O)C(C)C
546 min

* * *

Assay: Cmax in women plasma at 80 mg by LC/MS/MS analysis
Type: ADME, organism-based
Set-up: dose 80 mg
Details: female, human
value_kind: Cmax (ng/mL)
Entry rule: numbers only, all in ng/mL.

Entry CCCc1nc2c(C)cc(-c3nc4ccccc4n3C)cc2n1Cc1ccc(-c2ccccc2C(=O)O)cc1 has what Cmax?
590

* * *

Assay: Clearance in women plasma at 25 to 32 mg by LC/MS/MS analysis
Type: ADME, organism-based
Details: female, human
value_kind: clearance (mL/min/kg)
Provide the reading as a plain figure in mL/min/kg.

Consider the compound shown here: CCOc1nc2cccc(C(=O)O)c2n1Cc1ccc(-c2ccccc2-c2nnn[nH]2)cc1 What is its recorded clearance?
2.5

* * *

Assay: Cmax in human plasma expressing CYP2C9*1/*1 polymorphism at 50 mg by LC/MS/MS analysis
Assay type: ADME, organism-based
Parameters: dose 50 mg
value_kind: Cmax

Could you share which Cmax value was measured for CCCCc1nc(Cl)c(CO)n1Cc1ccc(-c2ccccc2-c2nn[nH]n2)cc1 ?
258 ng/mL

* * *

Test: AUC in human plasma expressing CYP2C8*1/*1 polymorphism at 50 mg by LC/MS/MS analysis
Assay type: ADME, organism-based
value_kind: AUC (ng·h/mL)
The answer is to be given in ng·h/mL; state only the numeric part.

Returns the measured AUC for the input compound. Input: CCCCc1nc(Cl)c(CO)n1Cc1ccc(-c2ccccc2-c2nn[nH]n2)cc1
504

* * *

Experiment: Tmax in human plasma expressing CYP2C9*2 allele carrier polymorphism at 25 to 320 mg by LC/MS/MS analysis
Format: ADME, organism-based
value_kind: Tmax (h)
Form entry: value (h) — number only.

For CCCCC(=O)N(Cc1ccc(-c2ccccc2-c2nnn[nH]2)cc1)[C@H](C(=O)O)C(C)C , what is its reported Tmax?
3
